experimental-target: T1, human cholecystokinin-1 receptor (human, UniProt P32238 1-428)
T1 sequence (looked up): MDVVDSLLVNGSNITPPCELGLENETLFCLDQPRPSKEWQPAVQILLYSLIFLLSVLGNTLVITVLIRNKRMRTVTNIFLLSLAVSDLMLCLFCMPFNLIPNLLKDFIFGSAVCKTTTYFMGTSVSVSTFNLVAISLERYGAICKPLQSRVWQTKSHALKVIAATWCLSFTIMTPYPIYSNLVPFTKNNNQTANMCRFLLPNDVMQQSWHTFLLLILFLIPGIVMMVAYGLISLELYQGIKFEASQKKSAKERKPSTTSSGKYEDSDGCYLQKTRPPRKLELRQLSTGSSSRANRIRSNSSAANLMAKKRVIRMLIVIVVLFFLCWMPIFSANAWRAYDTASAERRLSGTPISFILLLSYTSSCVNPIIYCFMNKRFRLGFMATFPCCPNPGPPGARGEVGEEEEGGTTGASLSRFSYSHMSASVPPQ
experiment-notes: cell-based or functional assay
Starred links: 1 amine or outer side, 2 acyl side, 3 side chain; linkers in the order of their positions; H or OH if unused. Non-standard residues stand in square brackets, D forms with d. No end group written: not given here. *: point of attachment. Phe(4-CH2SO3H) = N[C@@H](Cc1ccc(CS(=O)(=O)O)cc1)C(=O)O; sY = N[C@@H](Cc1ccc(OS(=O)(=O)O)cc1)C(=O)O; C18 diacid = O=C(O)CCCCCCCCCCCCCCCCC(=O)*; γGlu = O=C(O)[C@H](CCC(=O)[*:2])N[*:1]; βAsp = O=C(O)[C@H](CC(=O)[*:2])N[*:1]; Met(O2) = CS(=O)(=O)CC[C@H](N)C(=O)O; NMeF = CN[C@@H](Cc1ccccc1)C(=O)O; dNMeD = CN[C@H](CC(=O)O)C(=O)O; Nle = CCCC[C@H](N)C(=O)O; AEEA = NCCOCCOCC(=O)O
measure: EC50 (CCK-1R) (pM)
Dear colleague, please return just the value in pM, with no unit written.

Example cases with answers are listed next.
{"binder": "[βAsp][Phe(4-CH2SO3H)][Nle]GW[Nle][dNMeD][NMeF]-NH2 (N-terminus assumed; SMILES CCCC[C@H](NC(=O)[C@H](Cc1ccc(CS(=O)(=O)O)cc1)NC(=O)C[C@H](N)C(=O)O)C(=O)NCC(=O)N[C@@H](Cc1c[nH]c2ccccc12)C(=O)N[C@@H](CCCC)C(=O)N(C)[C@H](CC(=O)O)C(=O)N(C)[C@@H](Cc1ccccc1)C(N)=O, X = Nle or Nal) [bAsp-Phe(4-sulfomethyl)-Nle-Gly-Trp-Nle-DMeAsp-MePhe-amide]", "EC50 (CCK-1R) (pM)": 190}
{"binder": "D[Phe(4-CH2SO3H)][Nle]GW[Nle][dNMeD][NMeF]-NH2 (N-terminus assumed; SMILES CCCC[C@H](NC(=O)[C@H](Cc1ccc(CS(=O)(=O)O)cc1)NC(=O)[C@@H](N)CC(=O)O)C(=O)NCC(=O)N[C@@H](Cc1c[nH]c2ccccc12)C(=O)N[C@@H](CCCC)C(=O)N(C)[C@H](CC(=O)O)C(=O)N(C)[C@@H](Cc1ccccc1)C(N)=O, X = Nle or Nal) [Asp-Phe(4-sulfomethyl)-Nle-Gly-Trp-Nle-DMeAsp-MePhe-amide]", "EC50 (CCK-1R) (pM)": 250}
{"binder": "{C18 diacid-γGlu-AEEA-AEEA}-D[sY]LGW[Met(O2)][dNMeD][NMeF]-NH2", "EC50 (CCK-1R) (pM)": 140}
{"binder": "{C18 diacid-γGlu-AEEA-AEEA}-E[sY]LGWQ[dNMeD][NMeF]-NH2", "EC50 (CCK-1R) (pM)": 220}
{"binder": "D[sY]FGW[Nle][dNMeD][NMeF]-NH2 (N-terminus assumed; SMILES CCCC[C@H](NC(=O)[C@H](Cc1c[nH]c2ccccc12)NC(=O)CNC(=O)[C@H](Cc1ccccc1)NC(=O)[C@H](Cc1ccc(OS(=O)(=O)O)cc1)NC(=O)[C@@H](N)CC(=O)O)C(=O)N(C)[C@H](CC(=O)O)C(=O)N(C)[C@@H](Cc1ccccc1)C(N)=O, X = Nle or Nal) [Asp-sTyr-Phe-Gly-Trp-Nle-DMeAsp-MePhe-amide]", "EC50 (CCK-1R) (pM)": 220}
{"binder": "{C18 diacid}-GSSGSSD[sY]LGW[Nle][dNMeD][NMeF]-NH2 (SMILES CCCC[C@H](NC(=O)[C@H](Cc1c[nH]c2ccccc12)NC(=O)CNC(=O)[C@H](CC(C)C)NC(=O)[C@H](Cc1ccc(OS(=O)(=O)O)cc1)NC(=O)[C@H](CC(=O)O)NC(=O)[C@H](CO)NC(=O)[C@H](CO)NC(=O)CNC(=O)[C@H](CO)NC(=O)[C@H](CO)NC(=O)CNC(=O)CCCCCCCCCCCCCCCCC(=O)O)C(=O)N(C)[C@H](CC(=O)O)C(=O)N(C)[C@@H](Cc1ccccc1)C(N)=O, X = Nle or Nal; The Gly-Ser-Ser-Gly-Ser-Ser linker is written as part of the chain) [17-Carboxyheptadecanoyl-Gly-Ser-Ser-Gly-Ser-Ser-Asp-sTyr-Leu-Gly-Trp-Nle-DMeAsp-MePhe-amide]", "EC50 (CCK-1R) (pM)": 610}
{"binder": "{C18 diacid-γGlu-AEEA-AEEA}-D[sY]KGW[Nle][dNMeD][NMeF]-NH2 (X = Nle or Nal)", "EC50 (CCK-1R) (pM)": 360}

We now examine a further binder.
Exam item: Provide only the value of recorded EC50 (CCK-1R) for {C18 diacid-γGlu-AEEA-AEEA}-D[sY][Nle]GW[Nle][dNMeD]W-NH2 (SMILES CCCC[C@H](NC(=O)[C@H](Cc1ccc(OS(=O)(=O)O)cc1)NC(=O)[C@H](CC(=O)O)NC(=O)COCCOCCNC(=O)COCCOCCNC(=O)CC[C@H](NC(=O)CCCCCCCCCCCCCCCCC(=O)O)C(=O)O)C(=O)NCC(=O)N[C@@H](Cc1c[nH]c2ccccc12)C(=O)N[C@@H](CCCC)C(=O)N(C)[C@H](CC(=O)O)C(=O)N[C@@H](Cc1c[nH]c2ccccc12)C(N)=O, X = Nle or Nal)
Marked response: 240
